Every entry's value here was drawn from PubChem BioAssay.

# System Name: Homeobox protein Hox-A13 (Mus musculus) (UniProt Q62424)
# Sequence (Q62424 whole entry, looked up): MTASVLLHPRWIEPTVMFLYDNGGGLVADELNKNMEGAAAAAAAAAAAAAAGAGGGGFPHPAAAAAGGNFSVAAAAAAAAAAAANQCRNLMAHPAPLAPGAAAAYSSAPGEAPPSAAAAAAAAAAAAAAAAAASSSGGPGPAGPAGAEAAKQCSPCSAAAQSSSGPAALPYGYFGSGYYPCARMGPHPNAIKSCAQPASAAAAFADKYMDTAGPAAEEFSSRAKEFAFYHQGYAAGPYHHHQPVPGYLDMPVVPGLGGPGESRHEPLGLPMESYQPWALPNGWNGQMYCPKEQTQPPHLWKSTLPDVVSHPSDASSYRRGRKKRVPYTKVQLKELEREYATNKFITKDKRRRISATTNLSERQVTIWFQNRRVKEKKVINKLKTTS
# Experiment Summary: inhibitors of HoxA13-DNA binding, primary screen, biochemical, fluorescence polarization, labeled oligonucleotide (AID 1185)
# Test Settings: 15 min, called active from +8 up or from −8 down
Activity calls are given as the source filed them.
Assign a class; possible classes are T = active, F = inactive

Asked: Please share the test call associated with C=CCNC(=O)[C@H]1[C@@H]2C(=O)O[C@@H](c3ccccc3)[C@@H](c3ccccc3)N2[C@@H](c2ccccc2OCCO)[C@]12C(=O)N(C(=O)OCCOC)c1ccccc12 .
Given back: F

Asked: # iterate: COc1ccccc1CN1C(=O)c2ccccc2[C@](Cc2ccccc2I)(C(=O)NCCCN(C)C)[C@@H]1c1ccc(CO)cc1
Given back: F

Asked: # iterate: COCCOC(=O)N1C(=O)[C@@]2(c3cc(C#CC4(O)CCCCCC4)ccc31)[C@H](c1ccc(OCCO)cc1)N1[C@H](c3ccccc3)[C@H](c3ccccc3)OC(=O)[C@H]1[C@@H]2C(=O)N1CCCCCCC1
Given back: T

Asked: # iterate: COC(=O)[C@@]1(CCC(=O)OC(C)(C)C)N=C(c2ccc(OCCCO)cc2)O[C@H]1c1ccccc1CN=[N+]=[N-]
Given back: F

Asked: # iterate: CCCCC=C[C@@H](NC(=O)c1ccc(C(F)(F)F)cc1)c1ccccc1
Given back: F

Asked: # iterate: CC(c1ccccc1)C(O)C1C=CC2C(=O)N(c3ccccc3)C(=O)C2N1Nc1ccc(C#N)cc1 (configuration not stated)
Given back: F

Asked: # iterate: C=C(COC)/C(=C/C[C@H](OC(=O)c1ccncc1)c1ccc(OCCO)cc1)c1cc(C(=O)OC)ccc1OC
Given back: F

###

I'd appreciate it if you could supply composite z-score values for the items below.
# System Name: Pro-neuregulin-1, membrane-bound isoform (Homo sapiens) (UniProt Q02297)
# Sequence (Q02297 whole entry, looked up, canonical isoform): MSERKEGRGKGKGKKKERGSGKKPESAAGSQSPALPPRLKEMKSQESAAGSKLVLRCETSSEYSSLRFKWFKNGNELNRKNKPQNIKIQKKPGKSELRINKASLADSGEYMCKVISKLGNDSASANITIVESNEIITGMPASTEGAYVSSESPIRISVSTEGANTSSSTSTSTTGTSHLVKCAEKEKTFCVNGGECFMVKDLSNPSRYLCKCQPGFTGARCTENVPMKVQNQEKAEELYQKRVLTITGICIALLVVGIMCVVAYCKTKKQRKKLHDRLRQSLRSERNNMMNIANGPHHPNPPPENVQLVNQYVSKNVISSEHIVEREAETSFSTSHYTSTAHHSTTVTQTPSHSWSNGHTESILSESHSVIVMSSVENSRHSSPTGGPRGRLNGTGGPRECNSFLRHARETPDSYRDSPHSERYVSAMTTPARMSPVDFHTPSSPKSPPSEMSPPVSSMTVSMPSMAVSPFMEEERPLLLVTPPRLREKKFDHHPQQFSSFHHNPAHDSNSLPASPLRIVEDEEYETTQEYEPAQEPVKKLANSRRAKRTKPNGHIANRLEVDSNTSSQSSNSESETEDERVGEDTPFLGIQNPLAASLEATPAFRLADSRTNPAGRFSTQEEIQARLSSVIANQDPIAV
# Experiment Summary: NRG1 binders on small-molecule microarrays, primary screen, psychiatric disease protein project, biochemical, small-molecule microarray, fluorescence 635/667 (AID 1075);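 note: score combines 667 nm spot fluorescence with signal to noise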
# Test Settings: NRG1 binding, 635 nm fluorescence, higher = more signal
Please give only the number in your answer, with no unit.

Asked: Consider the compound C=CCOC(=O)[C@H]1[C@@H]2C(=O)O[C@@H](c3ccccc3)[C@@H](c3ccccc3)N2[C@@H](c2ccc(OCCOC(=O)[C@@H]3C[C@@H]4C(=O)N[C@@H](CC(C)C)C(=O)N4[C@@H]3c3ccc(O)cc3)cc2)[C@]12C(=O)Nc1ccc(I)cc12 and give its measured composite z-score.
Given back: 1.33

Asked: # iterate: COCCOC(=O)N1C(=O)[C@@]2(c3cc(C#CCC(C(=O)OC)C(=O)OC)ccc31)[C@H](C(N)=O)[C@H]1C(=O)O[C@H](c3ccccc3)[C@H](c3ccccc3)N1[C@@H]2c1ccc(OCCO)cc1
Given back: 1.19

###

# Test system: Human papillomavirus type 1a protein E7 (residues 44-93)
# Experiment Summary: HPV1a E7 fragment binders on microarrays, primary screen, biochemical, small-molecule microarray, residues 44-93, 635 nm fluorescence (AID 1108);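 note: E7 fragment applied at 1 µg/mL in TBST for 1 h at 4 C; score combines spot fluorescence with its signal to noise ratio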
# Test Settings: small-molecule microarray binding, fluorescence 635 nm; higher = more signal
Reported Property: composite z-score
Please give only the number in your answer, with no unit.

Asked: Record COC(=O)[C@@H]1N=C(c2ccc(OCCCO)cc2)O[C@@H]1c1ccccc1CN=[N+]=[N-] : what is its composite z-score with Human papillomavirus type 1a protein E7 (residues 44-93)?
Given back: 1.41

Asked: # iterate: COCCCNC(=O)[C@@]1(Sc2ccc(C)cc2)CC(=O)N(C2CCCCC2)[C@@H]1c1ccc(CO)cc1I
Given back: 1.01

Asked: # iterate: COc1ccc(NN2C(C(O)c3cc(C(F)(F)F)cc(C(F)(F)F)c3)C=CC3C(=O)N(C4CCCCC4)C(=O)C32)cc1 (stereo not drawn)
Given back: 0.258

Asked: # iterate: C=C(CC1([C@@H](NP(=O)(c2ccccc2)c2ccccc2)[C@H]2C[C@@H]2CCN(C(=O)OCC)S(=O)(=O)c2ccc(C)cc2)CC1)c1ccccc1
Given back: 1.39

Asked: # iterate: COCCOC(=O)N1C(=O)[C@@]2(c3cc(C#CC4=CCCCC4)ccc31)[C@H](C(=O)N1CCc3cc(OC)c(OC)cc3C1)[C@H]1C(=O)O[C@H](c3ccccc3)[C@H](c3ccccc3)N1[C@@H]2c1ccc(O)cc1
Given back: 1.42

Asked: # iterate: COC(=O)[C@@]1(Cc2ccc(F)cc2)[C@H]2c3cc(C(=O)N(C)C)n(CCN4CCOCC4)c3C[C@H]2CN1C(=O)c1ccccc1
Given back: 0.357

Asked: # iterate: O=C1c2ccccc2[C@@]2(Cc3ccccc3N(Cc3ccccc3)C2=O)[C@H](c2ccc(CO)cc2)N1Cc1ccccc1
Given back: 0.145

Asked: # iterate: CCOC(=O)C[C@H]1[C@H](OC(=O)Cc2ccc3c(c2)OCO3)[C@@H](NC(=O)c2ccccc2)c2cc(OCCCO)ccc2N1C(=O)Cc1ccc(OC)cc1
Given back: 0.334

Asked: # iterate: CN1C(=O)[C@]2(CCS(=O)(=O)c3ccccc3)N=C(c3ccc(OCCCO)cc3)O[C@@H]2c2ccccc21
Given back: 1.5

Asked: # iterate: C=CCC(OC(C)=O)[C@@H]1[C@@H](N(Cc2cc3ccccc3o2)C(=O)Cc2ccc(OC)cc2)c2cc(OCCCO)ccc2N1C(=O)Cc1ccc(OC)cc1 (stereo partly drawn)
Given back: -0.133

Asked: # iterate: C=CC[C@@]1(C(=O)O)N=C(c2ccc(OCCCO)cc2)O[C@@H]1c1ccccc1CN=[N+]=[N-]
Given back: 0.895

Asked: # iterate: COCCOC(=O)N1C(=O)[C@@]2(c3cc(C#CC4(O)CCCCCC4)ccc31)[C@H](C(=O)N1CCc3cc(OC)c(OC)cc3C1)[C@H]1C(=O)O[C@H](c3ccccc3)[C@H](c3ccccc3)N1[C@@H]2c1ccc(O)cc1
Given back: 1.02

Asked: # iterate: CN(C)C(=O)[C@@]1(CCS(=O)(=O)c2ccccc2)N=C(c2ccc(OCCCO)cc2)O[C@H]1c1ccccc1N=[N+]=[N-]
Given back: 1.43

###

# Experiment Summary: small-molecule microarray binders of probe aCHRDL2, primary screen, biochemical, biotinylated probe, 635/667 nm fluorescence (AID 1100)
# Test Settings: higher = more signal
label 1 means recorded composite z-score is 0.5 or above; label 0 means it is below 0.5.

Asked: Textbook exercise: given the entry COCCOC(=O)N1C(=O)[C@@]2(c3cc(C#CCCO)ccc31)[C@H](C(=O)N1CCN(c3ncccn3)CC1)[C@H]1C(=O)O[C@H](c3ccccc3)[C@H](c3ccccc3)N1[C@@H]2c1ccc(O)cc1 , state whether its composite z-score is greater than or equal to 0.5.
Given back: label 0

Asked: # iterate: CN(C)CCCC[C@@H]1NC(=O)[C@H]2C[C@@H](C(=O)NCc3ccc(F)cc3)[C@@H](c3ccc(O)cc3)N2C1=O
Given back: label 0

Asked: # iterate: C=CCC(OC(C)=O)[C@@H]1[C@@H](N(Cc2ccc(-c3cccc(C(F)(F)F)c3)o2)C(=O)c2cccc3ccccc23)c2cc(OCCCO)ccc2N1C(=O)c1ccc2ccccc2n1 (some centres not stated)
Given back: label 1

Asked: # iterate: C=CCOC(=O)[C@H]1[C@@H]2C(=O)O[C@@H](c3ccccc3)[C@@H](c3ccccc3)N2[C@@H](c2ccc(OCCOC(=O)[C@H]3C[C@H]4C(=O)NCC(=O)N4[C@H]3c3ccc(O)cc3)cc2)[C@]12C(=O)Nc1ccc(I)cc12
Given back: label 0

Asked: # iterate: CN1C(=O)C2C(C1=O)C1C=C(c3ccc(CO)cc3)C2C(c2cccs2)N1C (configuration not stated)
Given back: label 0

Asked: # iterate: COc1ccc(C#Cc2ccc3c(c2)[C@]2(C(=O)N3)[C@H](C(=O)Nc3nc4ccccc4s3)[C@H]3C(=O)O[C@H](c4ccccc4)[C@H](c4ccccc4)N3[C@@H]2c2ccc(OCCO)cc2)cc1
Given back: label 1

Asked: # iterate: COCCOC(=O)N1C(=O)[C@@]2(c3cc(C#Cc4ccc(OC)cc4)ccc31)[C@H](C(=O)Nc1nc3ccccc3s1)[C@H]1C(=O)O[C@H](c3ccccc3)[C@H](c3ccccc3)N1[C@@H]2c1ccccc1OCCO
Given back: label 0

Asked: # iterate: COc1cccc(OC)c1C(=O)O[C@H]1[C@@H]2OC(=O)[C@H](Cc3cccc(Br)c3)C/C=C/C[C@@H](Cc3cccc(Br)c3)C(=O)O[C@H]2[C@@H](OC)O[C@@H]1CO
Given back: label 0

Asked: # iterate: COC(=O)[C@@]1(CCS(=O)(=O)c2ccccc2)N=C(c2ccc(OCCCO)cc2)O[C@H]1c1ccccc1N=[N+]=[N-]
Given back: label 0

Asked: # iterate: CCOC(=O)C1=CC[C@@H](c2ccccc2)N(S(=O)(=O)c2ccc(C)cc2)[C@H]1C#N
Given back: label 1

Asked: # iterate: CO[C@H]1O[C@H](CO)[C@@H](OC(=O)Nc2ccc(C(F)(F)F)cc2)[C@H](OC(=O)Nc2ccccc2-c2ccccc2)[C@@H]1OC(=O)Nc1ccccc1-c1ccccc1
Given back: label 1

Asked: # iterate: CN(C)CCCNC(=O)[C@@]1(Cc2ccccc2I)c2ccccc2C(=O)N(Cc2ccccc2)[C@H]1c1ccc(CO)cc1
Given back: label 0
